Target: Aurora kinase A (Homo sapiens) (UniProt O14965)
Sequence (whole entry): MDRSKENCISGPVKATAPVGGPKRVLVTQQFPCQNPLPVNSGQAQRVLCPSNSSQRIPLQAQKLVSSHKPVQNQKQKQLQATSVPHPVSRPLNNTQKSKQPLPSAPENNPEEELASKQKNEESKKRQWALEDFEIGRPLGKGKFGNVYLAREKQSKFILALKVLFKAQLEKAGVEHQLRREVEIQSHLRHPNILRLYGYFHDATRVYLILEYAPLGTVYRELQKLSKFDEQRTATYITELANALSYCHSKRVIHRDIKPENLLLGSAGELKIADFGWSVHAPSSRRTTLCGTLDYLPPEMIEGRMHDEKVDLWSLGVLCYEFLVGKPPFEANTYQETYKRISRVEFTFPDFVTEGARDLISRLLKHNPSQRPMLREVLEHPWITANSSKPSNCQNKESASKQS
Details: Compound concentration 20.0 uM
Description: Thermal Shift Assay. Domain: start/stop: E122-S403
Kind request: treat -0.9 °C as inclusive, so ΔTm at -0.9 °C or higher is yes, anything lower is no.

Decide: is the reported value of ΔTm for COc1ccc(/C=C/C(=O)NO)c(-c2ccc(-c3ccccc3)cc2)c1 equal to or greater than -0.9 °C? yes

Follow-up entry: O=C(O)c1cccc(-c2ccc(-c3cn(C(=O)N4CCCCC4Cc4ccccc4)nn3)cc2)c1 (centres undefined) no

Follow-up entry: COc1ccc2c(c1)OC(C)(C)C(c1ccccc1)C2c1ccc(OCCN2CCCC2)cc1 (centres undefined) yes

====

Molecular target: Cyclin-dependent kinase 2 (Homo sapiens)
Settings: Compound concentration 20.0 uM
Description: Thermal Shift Assay. Domain: start/stop: M1-L298
Residues, ends and D or L forms follow the SMILES beside them.
Kind request: treat 0.1 °C as inclusive, so ΔTm at 0.1 °C or higher is yes, anything lower is no.

Solved entries (count: 8):
>>> class_name("CC(C)[C@H](NC(=O)OCc1ccccc1)C(=O)NC(CC(=O)O)C(=O)CF (stereo partly drawn)")
"no"
>>> class_name("CC(c1cccc2ccccc12)n1cnc2c(=O)[nH]c(Cc3ccccc3)nc21 (stereo not drawn)")
"no"
>>> class_name("CNC(=O)Cn1cc(-c2ccc3c(c2)[C@H](F)C[C@]32NC(=O)N(CC(=O)N(Cc3ccc(F)cc3)[C@@H](C)C(F)(F)F)C2=O)cn1")
"yes"
>>> class_name("COc1ccc2c(c1)OC(C)(C)C(c1ccccc1)C2c1ccc(OCCN2CCCC2)cc1 (stereo not drawn)")
"no"
>>> class_name("OC1CN=C2c3ccn([C@@H]4O[C@H]([C@H](O)c5ccc(Cl)cc5)[C@@H](O)[C@H]4O)c3N=CN21 (stereo partly drawn)")
"yes"
>>> class_name("COc1ccc(-c2ccc3c(c2)COC3=O)n2nc(C3(C(=O)OCC(C)C)CC3)nc12")
"yes"
>>> class_name("O=c1[nH]c(CS[C@H]2CC[C@H](O)CC2)nc2cc(OCC3CC3)cc(F)c12")
"no"
>>> class_name("Cc1nc2ccccn2c1C(=O)CN1CCN(c2ccc(F)cn2)CC1")
"yes"

Decide: is the reported value of ΔTm for Cc1cc2cc(NS(=O)(=O)c3ccc(C#N)cc3)ccc2n(C)c1=O equal to or greater than 0.1 °C? no

Follow-up entry: Cn1nc2c(=O)n(CC3(O)CCN(C(=O)C[C@H](c4ccccc4)C(F)(F)F)CC3)cnc2c1-c1ccc(CN)cc1 yes

Follow-up entry: CC[C@H](C)[C@H](NC(=O)[C@H](CCC(=O)O)NC(=O)[C@@H](NC(C)=O)C(C)C)C(=O)N[C@H](C=O)CC(=O)O (Ac-VEID-aldehyde) no

Follow-up entry: CC1(C)CC[C@]2(C(=O)O)CC[C@]3(C)C(=CC[C@@H]4[C@@]5(C)C=C(O)C(=O)C(C)(C)[C@@H]5CC[C@]43C)[C@@H]2C1 no

Follow-up entry: CCNC(=O)c1cc2c(-c3cc(C(C)(C)O)ccc3Oc3c(C)cc(F)cc3C)cn(C)c(=O)c2[nH]1 yes

Follow-up entry: CCCCCCNC(=O)n1cc(F)c(=O)[nH]c1=O no

Follow-up entry: O=C1/C(=N/Nc2ccc(S(=O)(=O)O)cc2)C(c2ccc([N+](=O)[O-])cc2)=NN1c1ccccc1 no

Follow-up entry: Cc1nn2c(nc(O)c3cccnc32)c1C#N no

Follow-up entry: CCCOc1cc(OCCCCN(C)C)cc(Oc2cc3c(cc2NS(=O)(=O)c2ccc(OC)c(OC)c2)n(C)c(=O)n3C)c1 no

Follow-up entry: COCc1nc2cnc3cc(-c4c(C)noc4C)c(OC[C@H]4CCNC4)cc3c2n1[C@H](C)c1ccccc1 yes

Follow-up entry: O=C(NCC1CCOCC1)c1n[nH]cc1NC(=O)c1c(F)cccc1F yes

Follow-up entry: Nc1ncnc2c1nc(NCc1ccc(-c3ccccc3)cc1)n2[C@@H]1O[C@H](CO)[C@@H](O)[C@H]1O yes

Follow-up entry: COc1ccc(Cc2nc(O)c3c(C)nc([C@@H](CCCc4ccccc4)[C@@H](C)O)n3n2)cc1OC no

Follow-up entry: CC(C)(C)OC(=O)Nc1ccc(-c2cc(C(=O)NCCCCCCC(=O)NO)no2)cc1 no

Follow-up entry: COc1cc2c(cc1-c1c(C)noc1C)[nH]c1nc(C)nc(Nc3cc(C4CC4)nn3C)c12 no
